- assaySystem: Amine oxidase [flavin-containing] A (Homo sapiens, UniProt P21397); further: assay procedure not described here
- Sequence (P21397 whole entry): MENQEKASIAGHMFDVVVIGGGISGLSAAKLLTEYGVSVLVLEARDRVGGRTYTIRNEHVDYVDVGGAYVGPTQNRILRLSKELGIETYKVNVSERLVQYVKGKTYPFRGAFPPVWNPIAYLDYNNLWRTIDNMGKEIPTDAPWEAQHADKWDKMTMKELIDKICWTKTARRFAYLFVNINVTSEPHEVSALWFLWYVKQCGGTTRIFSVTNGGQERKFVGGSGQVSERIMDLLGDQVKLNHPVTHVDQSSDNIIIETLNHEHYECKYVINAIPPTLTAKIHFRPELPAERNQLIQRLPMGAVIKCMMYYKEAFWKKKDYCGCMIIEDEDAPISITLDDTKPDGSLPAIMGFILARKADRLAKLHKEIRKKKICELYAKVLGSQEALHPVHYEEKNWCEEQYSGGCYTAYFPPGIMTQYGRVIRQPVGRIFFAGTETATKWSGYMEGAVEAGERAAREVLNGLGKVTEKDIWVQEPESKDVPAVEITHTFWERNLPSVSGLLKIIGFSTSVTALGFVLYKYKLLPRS
- Type: functional
Overview of recorded AC50 for various compounds

Sample records with AC50:
> print(dat)
                                   compound                               assaysystem  observationtype  measvalue
1  CC(=O)[C@@]1(O)CC[C@H]2[C@@H]3C[C@H](C)C4=CC(=O)C=C[C@]4(C)[C@@]3(F)[C@@H](O)C[C@@]21C  Amine oxidase [flavin-containing] A (Homo sapiens, UniProt P21397)             AC50    > 10 µM
2  CC(C(=O)O)c1ccc(C(=O)c2ccccc2)s1 (centres undefined)  Amine oxidase [flavin-containing] A (Homo sapiens, UniProt P21397)             AC50      18 µM
3  CCNC(=O)CCC/C=C\C[C@@H]1[C@@H](/C=C/[C@@H](O)CCc2ccccc2)[C@H](O)C[C@@H]1O  Amine oxidase [flavin-containing] A (Homo sapiens, UniProt P21397)             AC50    > 30 µM
4  Nc1nc(Cl)nc2c1ncn2[C@@H]1O[C@H](CO)[C@@H](O)[C@@H]1F  Amine oxidase [flavin-containing] A (Homo sapiens, UniProt P21397)             AC50    > 30 µM

Exam item: Entry under review: CC(NC(C)(C)C)C(=O)c1cccc(Cl)c1 (centres undefined) . Reported AC50?
Marked response: > 10 µM

====

Overview of recorded AC50 for various compounds
- assaySystem: UniProt P08172
- Sequence (P08172 whole entry): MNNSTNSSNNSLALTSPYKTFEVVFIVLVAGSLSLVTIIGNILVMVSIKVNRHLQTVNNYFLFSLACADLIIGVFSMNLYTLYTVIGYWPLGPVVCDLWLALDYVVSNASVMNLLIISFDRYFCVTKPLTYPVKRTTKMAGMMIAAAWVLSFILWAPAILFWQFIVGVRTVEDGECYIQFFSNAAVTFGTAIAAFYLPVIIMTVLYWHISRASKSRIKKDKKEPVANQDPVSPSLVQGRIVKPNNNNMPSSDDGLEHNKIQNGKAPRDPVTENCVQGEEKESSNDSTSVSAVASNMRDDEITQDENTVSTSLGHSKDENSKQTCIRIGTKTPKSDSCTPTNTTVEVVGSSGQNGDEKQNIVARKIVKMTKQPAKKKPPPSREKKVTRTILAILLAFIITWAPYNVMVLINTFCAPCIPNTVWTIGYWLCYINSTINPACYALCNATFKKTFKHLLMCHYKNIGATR

Sample records with AC50:
> print(dat)
                                   compound     assaysystem  observationtype  measvalue
1  COC(=O)N(C)c1c(N)nc(-c2nn(Cc3ccccc3F)c3ncccc23)nc1N  UniProt P08172             AC50    > 30 µM
2  N=C(N)NC(=O)c1nc(Cl)c(N)nc1N [AMILORIDE]  UniProt P08172             AC50    > 30 µM
3  N#Cc1ccnc(N2C(=O)CC[C@H]2C(=O)N(c2cncc(F)c2)[C@H](C(=O)NC2CC(F)(F)C2)c2ccccc2Cl)c1  UniProt P08172             AC50    > 30 µM

Exam item: Lab note: need AC50 for Cc1c(C)c2c(c(C)c1O)CCC(C)(COc1ccc(CC3SC(=O)NC3=O)cc1)O2 (centres undefined) on UniProt P08172, anyone have it?
Marked response: 17.8 µM

====

- assaySystem: 3',5'-cyclic-AMP phosphodiesterase 4D (Homo sapiens, UniProt Q08499); further: assay procedure not described here
- Sequence (Q08499 whole entry): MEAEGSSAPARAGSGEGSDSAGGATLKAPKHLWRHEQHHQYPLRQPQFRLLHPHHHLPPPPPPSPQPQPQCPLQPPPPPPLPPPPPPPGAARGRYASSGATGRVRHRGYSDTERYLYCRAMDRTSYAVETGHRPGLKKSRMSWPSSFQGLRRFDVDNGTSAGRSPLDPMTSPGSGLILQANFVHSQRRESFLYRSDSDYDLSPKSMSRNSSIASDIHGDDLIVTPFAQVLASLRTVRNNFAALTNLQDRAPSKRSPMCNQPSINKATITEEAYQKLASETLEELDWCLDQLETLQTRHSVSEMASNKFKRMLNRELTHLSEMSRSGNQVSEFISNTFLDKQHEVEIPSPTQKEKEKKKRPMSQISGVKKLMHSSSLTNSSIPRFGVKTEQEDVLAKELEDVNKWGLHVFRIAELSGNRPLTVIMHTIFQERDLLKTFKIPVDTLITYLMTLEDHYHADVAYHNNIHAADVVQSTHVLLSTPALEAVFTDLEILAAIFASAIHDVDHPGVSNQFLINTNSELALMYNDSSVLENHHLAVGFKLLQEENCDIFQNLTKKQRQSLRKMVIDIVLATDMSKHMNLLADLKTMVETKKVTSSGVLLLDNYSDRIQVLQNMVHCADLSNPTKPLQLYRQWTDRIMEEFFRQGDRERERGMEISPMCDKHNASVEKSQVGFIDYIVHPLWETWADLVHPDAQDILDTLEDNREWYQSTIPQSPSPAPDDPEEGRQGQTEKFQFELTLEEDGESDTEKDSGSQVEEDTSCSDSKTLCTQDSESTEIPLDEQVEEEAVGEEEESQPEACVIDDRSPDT
- Assay type: functional
observationType: AC50

Sample records with AC50:
> print(dat)
                                   compound                               assaysystem  measvalue
1                CN1CCCN=C1/C=C/c1cccc(O)c1  3',5'-cyclic-AMP phosphodiesterase 4D (Homo sapiens, UniProt Q08499)      17 µM
2  CN(C)CCc1c[nH]c2ccc(CS(=O)(=O)N3CCCC3)cc12  3',5'-cyclic-AMP phosphodiesterase 4D (Homo sapiens, UniProt Q08499)    > 30 µM
3  CCC(=O)c1ccc2c(c1)N(CC(C)N(C)C)c1ccccc1S2 (stereo not given)  3',5'-cyclic-AMP phosphodiesterase 4D (Homo sapiens, UniProt Q08499)    > 10 µM
4  CCOC(=O)[C@H](CCc1ccccc1)N[C@@H](C)C(=O)N1Cc2ccccc2C[C@H]1C(=O)O  3',5'-cyclic-AMP phosphodiesterase 4D (Homo sapiens, UniProt Q08499)    > 10 µM

Now, please, on to the next compound.
Exam item: Entry under review: CN(C)CCOC(c1ccc(Cl)cc1)c1ccccn1 (stereo not given) . Reported AC50?
Marked response: > 30 µM
